Origin of values: patent US11352340B2

- Target of assay: PI3Kγ (p110γ) Recombinant Human Protein (Homo sapiens (Human))
- Sequence (P48736 whole entry): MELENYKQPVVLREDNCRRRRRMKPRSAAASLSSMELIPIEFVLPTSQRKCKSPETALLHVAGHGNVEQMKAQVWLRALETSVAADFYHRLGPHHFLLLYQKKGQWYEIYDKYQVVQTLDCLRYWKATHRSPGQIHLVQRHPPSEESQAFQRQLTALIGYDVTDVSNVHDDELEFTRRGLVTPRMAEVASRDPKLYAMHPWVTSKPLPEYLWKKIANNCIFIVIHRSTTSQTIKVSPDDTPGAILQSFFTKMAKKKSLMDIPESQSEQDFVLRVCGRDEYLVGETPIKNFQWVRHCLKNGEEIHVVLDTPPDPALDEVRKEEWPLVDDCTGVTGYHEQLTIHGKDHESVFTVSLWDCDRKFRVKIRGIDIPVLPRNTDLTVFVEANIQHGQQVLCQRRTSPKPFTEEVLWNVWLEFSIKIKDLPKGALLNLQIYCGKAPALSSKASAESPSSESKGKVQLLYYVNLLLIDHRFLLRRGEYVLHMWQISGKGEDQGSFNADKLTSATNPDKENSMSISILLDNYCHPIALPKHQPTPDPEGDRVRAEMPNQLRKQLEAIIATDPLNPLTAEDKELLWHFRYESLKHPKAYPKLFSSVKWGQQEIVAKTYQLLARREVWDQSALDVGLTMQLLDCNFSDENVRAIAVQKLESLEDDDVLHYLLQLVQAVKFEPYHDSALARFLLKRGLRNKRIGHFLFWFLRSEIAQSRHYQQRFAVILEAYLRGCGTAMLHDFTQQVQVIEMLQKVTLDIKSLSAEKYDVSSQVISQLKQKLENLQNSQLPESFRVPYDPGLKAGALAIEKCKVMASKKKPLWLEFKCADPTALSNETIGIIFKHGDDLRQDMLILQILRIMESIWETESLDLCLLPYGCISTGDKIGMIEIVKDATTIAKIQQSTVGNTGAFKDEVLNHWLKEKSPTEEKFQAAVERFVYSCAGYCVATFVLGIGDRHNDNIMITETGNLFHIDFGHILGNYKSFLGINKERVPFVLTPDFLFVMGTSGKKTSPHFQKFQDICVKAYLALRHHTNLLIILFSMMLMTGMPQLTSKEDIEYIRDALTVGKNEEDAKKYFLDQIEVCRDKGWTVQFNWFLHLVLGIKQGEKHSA
- Method: PI3K-γ Scintillation Proximity Assay
- Condition description: read-out: PI3K-gamma SPA IC50
Where a name gives a salt, the structure may show the parent alone.
Measurement kind: IC50

Would you please look over these solved cases?
[
  {
    "Compound": "Cc1[nH]c(-c2cc(-c3cncc(S(C)(=O)=O)c3)ccn2)nc1C(N)=O [Example 249, trifluoroacetate salt]",
    "Target of assay": "PI3Kγ (p110γ) Recombinant Human Protein (Homo sapiens (Human))",
    "Measurement kind": "IC50",
    "Recorded result": "≤ 0.05 µM"
  },
  {
    "Compound": "Cc1nc(-c2cc(C3=CCCN(S(C)(=O)=O)C3)ccn2)[nH]c1C [Example 220, trifluoroacetate salt]",
    "Target of assay": "PI3Kγ (p110γ) Recombinant Human Protein (Homo sapiens (Human))",
    "Measurement kind": "IC50",
    "Recorded result": "≤ 0.5 µM"
  },
  {
    "Compound": "Cc1nc(-c2cc(-c3cncc(C(=O)N4CC(C)(C)C4)c3)ccn2)[nH]c1C [Example 185, trifluoroacetate salt]",
    "Target of assay": "PI3Kγ (p110γ) Recombinant Human Protein (Homo sapiens (Human))",
    "Measurement kind": "IC50",
    "Recorded result": "≤ 0.05 µM"
  },
  {
    "Compound": "Cc1nc(-c2cc(-c3cncc(C(=O)N(C)CCO)c3)ccn2)[nH]c1C [Example 201, trifluoroacetate salt]",
    "Target of assay": "PI3Kγ (p110γ) Recombinant Human Protein (Homo sapiens (Human))",
    "Measurement kind": "IC50",
    "Recorded result": "≤ 0.05 µM"
  },
  {
    "Compound": "Cc1[nH]c(-c2cc(-c3cncc(S(C)(=O)=O)c3)ccn2)nc1C(=O)N1CC[C@@H](O)C1",
    "Target of assay": "PI3Kγ (p110γ) Recombinant Human Protein (Homo sapiens (Human))",
    "Measurement kind": "IC50",
    "Recorded result": "≤ 0.05 µM"
  },
  {
    "Compound": "Cc1[nH]c(-c2cc(-c3cncc(S(C)(=O)=O)c3)ccn2)nc1C(=O)N(C)C [Example 251, trifluoroacetate salt]",
    "Target of assay": "PI3Kγ (p110γ) Recombinant Human Protein (Homo sapiens (Human))",
    "Measurement kind": "IC50",
    "Recorded result": "≤ 0.5 µM"
  }
]

The record that follows has no IC50 shown yet.
Could you tell me which IC50 is on file for COc1cncc(-c2ccnc(-c3ncc(C(C)C)[nH]3)c2)c1 [Example 84, trifluoroacetate salt] ? ≤ 0.1 µM
